meta.source: ChEMBL document CHEMBL4689842

test system: HEK-293T; assay: Multiplex assay against HEK293T; assay type: toxicity, cell-based; details: human, 24 h, 1 µM, compound concentration 1 uM, replicate 2
Would you kindly list Population Mitotic Cells (%) for each of these molecules?
All answers are understood in %, so give the number only.

// Cc1c(P(=S)(c2ccccc2)c2ccccc2)n2ccccc2[n+]1C/C=C/c1ccccc1.[Br-] : Population Mitotic Cells (%) value = 11

// CCCCN(CC)c1nc(C)nc2c1c(C)cn2-c1c(C)cc(C)cc1C.Cl : Population Mitotic Cells (%) value = 84

// N#CCNC(=O)c1ccc(-c2ccnc(Nc3ccc(N4CCOCC4)cc3)n2)cc1 : Population Mitotic Cells (%) value = 89

// CCOc1ccn(-c2ccc(F)cc2)c(=O)c1C(=O)Nc1ccc(Oc2ccnc(N)c2Cl)c(F)c1 : Population Mitotic Cells (%) value = 90

// Cc1c(Nc2ccc(S(=O)(=O)N3CCN(C)CC3)cc2F)nc2ccc(Nc3cnn(C4CC4)c3)cn2c1=O : Population Mitotic Cells (%) value = 87

// CC(C)C[C@H](NC(=O)[C@H](Cc1ccccc1)NC(=O)CNC(=O)CNC(=O)[C@@H](N)Cc1ccc(O)cc1)C(=O)O : Population Mitotic Cells (%) value = 89

// Cc1ccc(NC(=O)Nc2cc(C(F)(F)F)ccc2F)cc1Nc1ccc2c(c1)NC(=O)/C2=C\c1ccc[nH]1 : Population Mitotic Cells (%) value = 96

// CC(C)c1cc(Nc2nc(N3CCC[C@H](N)C3)ncc2C(N)=O)cc(C(C)C)n1 : Population Mitotic Cells (%) value = 37

----------
system: HEK-293T; test: Multiplex assay against HEK293T; type: toxicity, cell-based; conditions: human, 48 h, 1 µM, compound concentration 1 uM, replicate 2
Reported endpoint: Population Apoptotic (%)
All answers are understood in %, so give the number only.

Known value: HEK-293T Population Apoptotic (%) of the molecule C[C@@H](Oc1cc(-n2cnc3ccc(CN4CCN(C)CC4)cc32)sc1C(N)=O)c1ccccc1C(F)(F)F [GSK-461364] equals 67

Known value: HEK-293T Population Apoptotic (%) of the molecule N#CCNC(=O)c1ccc(-c2ccnc(Nc3ccc(N4CCOCC4)cc3)n2)cc1 [MOMELOTINIB] equals 14

Known value: HEK-293T Population Apoptotic (%) of the molecule CC(C)c1cc(Nc2nc(N3CCC[C@H](N)C3)ncc2C(N)=O)cc(C(C)C)n1 equals 66

Known value: HEK-293T Population Apoptotic (%) of the molecule Cc1c(P(=S)(c2ccccc2)c2ccccc2)n2ccccc2[n+]1C/C=C/c1ccccc1.[Br-] equals 92

Known value: HEK-293T Population Apoptotic (%) of the molecule CC(Cc1ccc(O)c(O)c1)C(C)Cc1ccc(O)c(O)c1 (stereo not drawn) [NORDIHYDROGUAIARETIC ACID] equals 14

Known value: HEK-293T Population Apoptotic (%) of the molecule CCCCN(CC)c1nc(C)nc2c1c(C)cn2-c1c(C)cc(C)cc1C.Cl equals 15

Known value: HEK-293T Population Apoptotic (%) of the molecule CCCc1cc(C)[nH]c(=O)c1CNC(=O)c1cc(-c2ccc(N3CCN(C(C)C)CC3)nc2)cc2c1cnn2C(C)C equals 69

Known value: HEK-293T Population Apoptotic (%) of the molecule CC(/C=C1\SC(=S)N(CCCC(=O)Nc2ccc(C(=O)O)c(O)c2)C1=O)=C\c1ccccc1 equals 3
